Assay: chemical genetic growth profiling, strain panel (AID 1159580);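 note: tested at 20 µM; growth read once vehicle control cultures reached saturation at 30 °C; lower values mean less growth of the strain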
Conditions: S. cerevisiae deletion strains, growth OD, locus YER167W, strain BCK2
Out of some 5,500 compounds screened, about 2,000 (36%) were called active. Roughly 18% stayed inconclusive and do not appear here. Cut-off read from the data, not from the text of the source: active = normalized growth mostly below about 0.91 (no sharp cut-off); inconclusive = no clear call, values can overlap the other calls; inactive = mostly above about 0.92. The list shows a part of the results.
# output must be one of active, inactive

The examples below pair each entry with its known result.
CN1CCN(CCCN2c3ccccc3Sc3ccc(C(F)(F)F)cc32)CC1 ... active
O=C(O)c1cc(=O)c2cccc(O)c2[nH]1 ... inactive
Cc1cc(=O)n(-c2ccccc2)n1C ... inactive
CC(=O)N[C@@H](Cc1c[nH]c2ccccc12)C(=O)O ... inactive
NCCc1c[nH]c2ccccc12 ... inactive
CC(N)C(O)c1ccc(O)c(O)c1 (stereo unspecified) ... inactive
CC[C@@H](CO)NC(=O)[C@@H]1C=C2c3cccc4[nH]cc(c34)C[C@H]2N(C)C1 ... inactive
CC(=O)Oc1cccc2c1C(=O)c1c(OC(C)=O)cc(C(=O)O)cc1C2=O ... inactive
NCC1OC(OC2C(CO)OC(OC3C(O)C(N)CC(N)C3OC3OC(CO)C(O)CC3N)C2O)C(N)C(O)C1OC1OC(CO)C(O)C(O)C1O (stereo unspecified) ... inactive
COc1cc2c(cc1OC)[C@@]13CCN4CC5=CCOC6CC(=O)N2C1[C@H]6[C@H]5C[C@H]43 (stereo partly specified) ... inactive

-- ask Each molecule tested received a call. Report the one for CC(NCCC(c1ccccc1)c1ccccc1)c1ccccc1 (stereo unspecified) .
-- reply inactive
